test: Antioxidant activity assessed as hydrogen peroxide scavenging activity after 10 mins; type: functional
outcome.measure: IC50 (µg/mL)
Numeric answer only, unit µg/mL assumed.

[
  {
    "structure.as.smiles": "Cn1c(NN)nc(-c2ccc(Cl)cc2)c(C#N)c1=O",
    "reported.result": 41
  },
  {
    "structure.as.smiles": "CCOC(=O)c1cnn(-c2nc(-c3ccccc3Cl)c(C#N)c(=O)n2C)c1N",
    "reported.result": 98
  },
  {
    "structure.as.smiles": "CCOC(=O)c1cnn(-c2nc(-c3ccccc3F)c(C#N)c(=O)n2C)c1N",
    "reported.result": 86
  }
]

Dear colleague, please send me the reported IC50 for CSc1nc(-c2ccccc2O)c(C#N)c(=O)n1C when you can.
39

Item Cn1c(NN)nc(-c2cccs2)c(C#N)c1=O : provide IC50
53

Please look at this compound and report its IC50: Cn1c(NN)nc(-c2ccco2)c(C#N)c1=O
58

Tell me IC50 reported for Cn1c(NN)nc(-c2ccccc2O)c(C#N)c1=O
30

Annotate the compound CSc1nc(-c2cccs2)c(C#N)c(=O)n1C with its measured IC50.
72
